Origin of the recorded values: patent US12077555B2

target: STAT3 (Homo sapiens); experiment: Quantitation of STAT3 degradation in A549 cells by Western blot; assay type: cell-based; design: expressed in transfected cells; host or cells: A549; details: read-out: A549 DC50, 24 hours, tested up to 30 μM or 10 μM
Kindly state DC50 for each of the entries shown.

For reference, reported DC50 for C/C(=C\C(=O)N[C@H]1CCc2cccc3c2N(C1=O)[C@H](C(=O)N[C@@H](CCC(N)=O)[C@@H](C)OCc1ccc(CCCOCCCCCc2cccc4c2n(C)c(=O)n4C2CCC(=O)NC2=O)cc1)C3)c1ccc(C(F)(F)P(=O)(OCOC(=O)C(C)(C)C)OCOC(=O)C(C)(C)C)cc1 (stereo partly shown) [Compound I-29] stands at > 10 µM

The compound identified as Cc1ncsc1-c1ccc(CNC(=O)C2C[C@@H](O)CN2C(=O)[C@@H](NC(=O)CCCc2ccc(CO[C@H](C)[C@H](CCC(N)=O)NC(=O)[C@@H]3Cc4cccc5c4N3C(=O)[C@@H](NC(=O)c3cc4cc(C(=O)P(=O)(O)O)ccc4[nH]3)CC5)cc2)C(C)(C)C)cc1 (stereo partly shown) [Compound I-101] registered its DC50 at < 30 µM

Lookup result for Cn1c(=O)n(C2CCC(=O)NC2=O)c2ccc(C#CCCCC(=O)N3CC[C@H]4CC[C@@H](C(=O)N[C@@H](CCC(N)=O)C(=O)NC(c5ccccc5)c5ccccc5)N4C(=O)[C@@H](NC(=O)c4cc5cc(C(=O)P(=O)(O)O)ccc5[nH]4)C3)cc21 (stereo partly shown) [Compound I-105] ; measured DC50: < 30 µM

The measured DC50 associated with C/C(=C\C(=O)N[C@H]1CN(C(=O)CCCCCCc2ccc3c(c2)n(C)c(=O)n3C2CCC(=O)NC2=O)CC[C@H]2CC[C@@H](C(=O)N[C@@H](CCC(N)=O)C(=O)NC(c3ccccc3)c3ccccc3)N2C1=O)c1ccc(C(F)(F)P(=O)(O)O)cc1 (stereo partly shown) [Compound I-112] reads < 30 µM

For C/C(=C\C(=O)N[C@H]1CN(C(=O)CCCCCC#Cc2cccc3c2CN(C2CCC(=O)NC2=O)C3=O)CC[C@H]2CC[C@@H](C(=O)N[C@@H](CCC(N)=O)C(=O)NC(c3ccccc3)c3ccccc3)N2C1=O)c1ccc(C(F)(F)P(=O)(O)O)cc1 (stereo partly shown) [Compound I-115] the compound record lists DC50 as < 30 µM

Quick note, DC50 for C/C(=C\C(=O)N[C@H]1CCc2cccc3c2N(C1=O)[C@H](C(=O)N[C@@H](CCC(N)=O)[C@@H](C)OCc1ccc(CCCOCCOCCOCCOc2cc(-c4scnc4C)ccc2CNC(=O)[C@@H]2C[C@@H](O)CN2C(=O)[C@@H](NC(=O)C2(F)CC2)C(C)(C)C)cc1)C3)c1ccc(C(F)(F)P(=O)(OCOC(=O)C(C)(C)C)OCOC(=O)C(C)(C)C)cc1 [Compound I-17] landed at > 30 µM

Reported DC50 ( C/C(=C\C(=O)N[C@H]1CCc2cccc3c2N(C1=O)[C@H](C(=O)N[C@@H](CCC(N)=O)[C@@H](C)OCc1ccc(C(=O)N[C@H](C(=O)N2C[C@H](O)CC2C(=O)NCc2ccc(-c4scnc4C)cc2)C(C)(C)C)cc1)C3)c1ccc(C(F)(F)P(=O)(OCOC(=O)C(C)(C)C)OCOC(=O)C(C)(C)C)cc1 (stereo partly shown) [Compound I-11] ) = > 30 µM

====

target: STAT3 (Homo sapiens, UniProt P40763); assay: STAT3 HiBiT degradation assay in transfected A549 cells; type: cell-based; design: expressed in transfected cells; host or cells: A549; conditions: A549, 24 h; read-out: STAT3 HiBiT A549 degradation 24 h: Average external-Abs DC50
Sequence (P40763 whole entry): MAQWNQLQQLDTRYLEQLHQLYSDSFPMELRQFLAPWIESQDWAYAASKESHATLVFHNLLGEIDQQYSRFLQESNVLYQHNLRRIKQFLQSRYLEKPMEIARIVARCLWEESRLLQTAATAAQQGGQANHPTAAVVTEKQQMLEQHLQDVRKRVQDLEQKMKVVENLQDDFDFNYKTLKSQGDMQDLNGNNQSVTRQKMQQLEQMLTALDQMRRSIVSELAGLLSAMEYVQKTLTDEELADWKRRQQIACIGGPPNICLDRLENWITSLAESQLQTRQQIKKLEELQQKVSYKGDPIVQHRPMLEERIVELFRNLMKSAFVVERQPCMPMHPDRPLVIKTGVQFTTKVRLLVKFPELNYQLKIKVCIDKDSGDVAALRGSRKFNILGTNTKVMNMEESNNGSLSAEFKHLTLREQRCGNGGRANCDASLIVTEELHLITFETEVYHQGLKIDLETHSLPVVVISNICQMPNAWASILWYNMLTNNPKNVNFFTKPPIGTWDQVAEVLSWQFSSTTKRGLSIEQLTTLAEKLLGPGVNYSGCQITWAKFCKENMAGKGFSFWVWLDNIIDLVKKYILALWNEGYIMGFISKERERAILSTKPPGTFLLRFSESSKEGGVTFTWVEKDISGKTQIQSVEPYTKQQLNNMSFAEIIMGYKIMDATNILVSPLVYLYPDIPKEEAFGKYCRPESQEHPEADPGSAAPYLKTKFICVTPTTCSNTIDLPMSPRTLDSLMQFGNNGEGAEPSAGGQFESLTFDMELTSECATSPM
RECORDED METRIC: DC50

Short answer for Cc1ncsc1-c1ccc(CNC(=O)C2C[C@@H](O)CN2C(=O)[C@@H](NC(=O)CC2CC(c3ccc(CO[C@H](C)[C@H](CCC(N)=O)NC(=O)[C@@H]4Cc5cccc6c5N4C(=O)[C@@H](NC(=O)c4cc5cc(C(=O)P(=O)(O)O)ccc5[nH]4)CC6)cc3)C2)C(C)(C)C)cc1 (stereo partly drawn) : DC50 was > 1000 nM

The compound listed as Cc1ncsc1-c1ccc([C@H](C)NC(=O)[C@@H]2C[C@@H](O)CN2C(=O)[C@@H](NC(=O)CCCCCc2c(F)ccc(OC[C@H](CCC(N)=O)NC(=O)[C@@H]3Cc4cccc5c4N3C(=O)[C@@H](NC(=O)c3cc4cc(C(=O)P(=O)(O)O)ccc4[nH]3)CC5)c2F)C(C)(C)C)cc1 shows DC50 equal to < 10 nM

// Cc1ncsc1-c1ccc([C@H](C)NC(=O)[C@@H]2C[C@@H](O)CN2C(=O)[C@@H](NC(=O)CCCCCc2cc(OC[C@@H](NC(=O)[C@@H]3Cc4cccc5c4N3C(=O)[C@@H](NC(=O)c3cc4cc(C(=O)P(=O)(O)O)ccc4[nH]3)CC5)C(N)=O)ccc2Cl)C(C)(C)C)cc1 : DC50 value = 10 to 100 nM

====

Target: STAT3 (Homo sapiens, UniProt P40763)
Experiment: STAT3 HiBiT degradation assay in transfected A549 cells
Format: cell-based
Design: expressed in transfected cells; host or cells: A549
Conditions: A549, 24 h; read-out: STAT3 HiBiT A549 degradation 24 h: Average external-Abs DC50
Description: Compound preparation and Cell seeding: The transfected A549 cells were harvested from dish into cell culture medium and cell numbers counted. […] Detection: Plates were removed from incubators and equilibrated at room temperature for 15 minutes. […] 30 μL of Nano-Glo Hibit Lytic Detection reagent was added into each well to be detected. The plates were held at room temperature for 10 min followed by reading on EnSpire. […]
RECORDED METRIC: DC50

The measured DC50 associated with Cn1c(=O)n(C2CCC(=O)NC2=O)c2cccc(CCCCCCCCC(=O)N3CC[C@H]4CC[C@@H](C(=O)N[C@@H](CCC(N)=O)C(=O)NC(c5ccccc5)c5ccccc5)N4C(=O)[C@@H](NC(=O)c4cc5cc(C(=O)P(=O)(O)O)ccc5[nH]4)C3)c21 (some centres unmarked) [Compound I-125] reads 0.1 to 1 µM

Kindly note the recorded DC50 for Cc1ncsc1-c1ccc(CNC(=O)[C@@H]2C[C@@H](O)CN2C(=O)[C@@H](NC(=O)CCCCCc2cccc(CC[C@H](CCC(N)=O)NC(=O)[C@@H]3Cc4cccc5c4N3C(=O)[C@@H](NC(=O)c3cc4cc(C(=O)P(=O)(O)O)ccc4[nH]3)CC5)c2)C(C)(C)C)cc1 [Compound I-224] , which is > 1 µM

====

biological target: STAT3 (Homo sapiens); assay: STAT3 HiBiT degradation assay in transfected A549 cells; assay type: cell-based; parameters: expressed in transfected cells; host or cells: A549; details: A549, 24 h; read-out: STAT3 HiBiT A549 degradation 24 h: Average external-Abs DC50
RECORDED METRIC: DC50

Reported DC50 of CC(=O)N1CC[C@H]2CC[C@@H](C(=O)N[C@@H](CCC(N)=O)C(=O)NCCCCCCCCC(=O)N[C@H](C(=O)N3C[C@H](O)C[C@H]3C(=O)NCc3ccc(-c4scnc4C)cc3)C(C)(C)C)N2C(=O)[C@@H](NC(=O)c2cc3cc(C(=O)P(=O)(O)O)ccc3[nH]2)C1 : > 1000 nM

Measured DC50 of Cc1ncsc1-c1ccc(C2(NC(=O)[C@@H]3C[C@@H](O)CN3C(=O)[C@@H](NC(=O)CCCCCc3cccc(OC[C@H](CCC(N)=O)NC(=O)[C@@H]4Cc5cccc6c5N4C(=O)[C@@H](NC(=O)c4cc5cc(C(=O)P(=O)(O)O)ccc5[nH]4)CC6)c3)C(C)(C)C)CC2)cc1 : 10 to 100 nM

According to the records, this molecule Cn1c(=O)n(C2CCC(=O)NC2=O)c2ccc(CCCCCc3cc4c5c(c3)C[C@@H](C(=O)N[C@@H](CCC(N)=O)C(=O)NC(c3ccccc3)c3ccccc3)N5C(=O)[C@@H](NC(=O)c3cc5cc(C(=O)P(=O)(O)O)ccc5[nH]3)CC4)cc21 (some centres unmarked) displays DC50 of 100 to 1000 nM

Reported DC50 for Cc1cc(CCCCC(=O)N[C@H](C(=O)N2C[C@H](O)C[C@H]2C(=O)N[C@@H](C)c2ccc(-c3scnc3C)cc2)C(C)(C)C)ccc1CO[C@H](C)[C@H](CCC(N)=O)NC(=O)[C@@H]1Cc2cccc3c2N1C(=O)[C@@H](NC(=O)c1cc2cc(C(=O)P(=O)(O)O)ccc2[nH]1)CC3 was 10 to 100 nM

get_value(item= Cc1ncsc1-c1ccc(CNC(=O)[C@@H]2C[C@@H](O)CN2C(=O)[C@@H](NC(=O)NCCCc2ccc(CO[C@H](C)[C@H](CCC(N)=O)NC(=O)[C@@H]3Cc4cccc5c4N3C(=O)[C@@H](NC(=O)c3cc4cc(C(=O)P(=O)(O)O)ccc4[nH]3)CC5)cc2)C(C)(C)C)cc1 , readout=DC50) returns 100 to 1000 nM
